Biological target: ΔF508-CFTR (Homo sapiens, UniProt P13569, DEL508-508)
Construct: expressed in transfected cells
Sequence (P13569 with tags, fused parts or gaps DEL508-508): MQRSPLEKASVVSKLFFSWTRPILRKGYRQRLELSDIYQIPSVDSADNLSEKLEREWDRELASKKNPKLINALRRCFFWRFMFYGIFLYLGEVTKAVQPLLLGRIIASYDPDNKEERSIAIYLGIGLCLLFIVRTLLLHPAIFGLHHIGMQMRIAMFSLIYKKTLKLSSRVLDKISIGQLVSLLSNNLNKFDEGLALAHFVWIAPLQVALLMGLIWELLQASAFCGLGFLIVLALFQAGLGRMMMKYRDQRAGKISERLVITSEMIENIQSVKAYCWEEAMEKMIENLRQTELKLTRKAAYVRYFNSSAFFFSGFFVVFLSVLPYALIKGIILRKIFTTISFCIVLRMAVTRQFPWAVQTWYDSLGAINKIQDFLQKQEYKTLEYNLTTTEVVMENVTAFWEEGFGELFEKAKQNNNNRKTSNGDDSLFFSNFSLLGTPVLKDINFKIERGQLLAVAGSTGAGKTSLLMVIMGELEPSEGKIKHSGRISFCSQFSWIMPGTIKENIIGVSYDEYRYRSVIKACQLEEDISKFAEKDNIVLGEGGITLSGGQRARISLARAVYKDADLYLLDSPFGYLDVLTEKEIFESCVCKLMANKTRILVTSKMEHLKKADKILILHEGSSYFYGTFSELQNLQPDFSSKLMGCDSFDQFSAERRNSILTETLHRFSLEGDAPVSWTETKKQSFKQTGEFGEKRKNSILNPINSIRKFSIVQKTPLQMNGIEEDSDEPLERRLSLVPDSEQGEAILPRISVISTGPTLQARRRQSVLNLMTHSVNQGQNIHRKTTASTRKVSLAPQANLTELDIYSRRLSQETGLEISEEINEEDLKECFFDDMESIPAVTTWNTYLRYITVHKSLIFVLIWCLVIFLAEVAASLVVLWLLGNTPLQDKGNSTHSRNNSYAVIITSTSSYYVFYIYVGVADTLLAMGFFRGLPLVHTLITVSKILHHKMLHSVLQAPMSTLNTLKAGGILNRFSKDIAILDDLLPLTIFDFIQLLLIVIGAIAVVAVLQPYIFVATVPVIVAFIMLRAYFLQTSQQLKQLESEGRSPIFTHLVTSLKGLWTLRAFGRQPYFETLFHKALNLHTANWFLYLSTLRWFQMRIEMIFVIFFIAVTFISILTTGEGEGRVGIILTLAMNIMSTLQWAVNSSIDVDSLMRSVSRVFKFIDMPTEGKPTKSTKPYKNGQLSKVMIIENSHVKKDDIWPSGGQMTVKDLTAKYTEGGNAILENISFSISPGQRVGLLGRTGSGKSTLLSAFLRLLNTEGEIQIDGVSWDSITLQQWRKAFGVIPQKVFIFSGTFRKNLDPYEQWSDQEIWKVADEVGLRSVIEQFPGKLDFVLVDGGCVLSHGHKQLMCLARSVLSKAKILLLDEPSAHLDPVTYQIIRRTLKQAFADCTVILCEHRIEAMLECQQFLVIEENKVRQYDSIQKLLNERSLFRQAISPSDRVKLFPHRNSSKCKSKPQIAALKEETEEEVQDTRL
Experiment: Membrane potential optical assay (FRET/VIPR), identification of correction compounds
Format: cell-based
Conditions: relative efficacy
Emax: recorded values
measured.metric: Emax

> print(dat)
                                   compound  measured.metric      result
1  CC(c1nc2ccccc2c(=O)n1C)N1CCN(S(=O)(=O)c2cccc3nsnc23)CC1 (centres unmarked) [compound 282]             Emax       < 25%
2  CC(c1nc2ccccc2c(=O)n1C)N1CCC(NS(=O)(=O)c2ccc(Br)cc2)CC1 (centres unmarked) [compound 166]             Emax  25 to 100%
3  CC(c1nc2cc(Cl)ccc2c(=O)n1C)N1CCN(S(=O)(=O)c2ccccc2)CC1 (centres unmarked) [compound 91]             Emax  25 to 100%
4  CCCC(c1nc2ccccc2c(=O)n1CC)N1CCN(S(=O)(=O)c2ccc(OC)cc2)CC1 (centres unmarked) [compound 341]             Emax      > 100%
5  CC(c1nc2ccccc2c(=O)n1C)N1CCN(S(=O)(=O)c2c(Cl)ccc3nonc23)CC1 (centres unmarked) [compound 254]             Emax  25 to 100%
6  COc1ccc(S(=O)(=O)Nc2ccc(NC(C)c3nc4ccccc4c(=O)n3C)cc2)cc1 (centres unmarked) [compound 307]             Emax  25 to 100%
7  CC(c1nc2ccccc2c(=O)n1C)N1CCN(S(=O)(=O)c2ccc(-c3cc(C(F)(F)F)on3)s2)CC1 (centres unmarked) [compound 261]             Emax  25 to 100%
8  CC(c1nc2ccccc2c(=O)n1C)N1CCN(S(=O)(=O)c2cccc(C(F)(F)F)c2)CC1 (centres unmarked) [compound 7]             Emax  25 to 100%

---

Measured EC50, listed per entry.
Target: ΔF508-CFTR (Homo sapiens, UniProt P13569, DEL508-508)
Assay: Membrane potential optical assay (FRET/VIPR), identification of correction compounds
measured.metric: EC50

> print(dat)
                                   compound       result
1  COc1ccc(S(=O)(=O)N2CCN(Cc3nc(OC4CCCC4)c4ccccc4n3)CC2)cc1 [compound 386]      < 10 µM
2  CC(c1nc2cc(Cl)ccc2c(=O)n1C)N1CCNCC1 (centres unmarked) [compound 90]  25 to 60 µM
3  COc1ccc(S(=O)(=O)N2CCN(C(C)c3nc4ccccc4c(=O)n3CCNC(C)=O)CC2)cc1 (centres unmarked) [compound 288]  25 to 60 µM
4  CC(c1nc2ccc(Br)cc2c(=O)n1C)N1CCN(S(=O)(=O)c2ccccc2)CC1 (centres unmarked) [compound 114]  10 to 25 µM
5  COc1ccc(S(=O)(=O)N2CCN(C(C)c3nc(NC4CCCCC4)c4ccccc4n3)CC2)cc1 (centres unmarked) [compound 304]      < 10 µM
6  Cc1ccc(NC(=O)N2CCN(C(C)c3nc4ccc(Cl)cc4c(=O)n3C)CC2)cc1 (centres unmarked) [compound 45]  25 to 60 µM
7  CCCn1c(C(CC)N2CCN(S(=O)(=O)c3ccc(OC)cc3)CC2)nc2ccccc2c1=O (centres unmarked) [compound 342]      < 10 µM
8  CC(c1nc2ccccc2c(=O)n1C)N1CCN(S(=O)(=O)c2ccc(-c3ccon3)s2)CC1 (centres unmarked) [compound 269]  25 to 60 µM
